Target: human TDO2 (Homo sapiens)
Construct: host or cells: murine GL261 glioma cells
Sequence (P48775 whole entry): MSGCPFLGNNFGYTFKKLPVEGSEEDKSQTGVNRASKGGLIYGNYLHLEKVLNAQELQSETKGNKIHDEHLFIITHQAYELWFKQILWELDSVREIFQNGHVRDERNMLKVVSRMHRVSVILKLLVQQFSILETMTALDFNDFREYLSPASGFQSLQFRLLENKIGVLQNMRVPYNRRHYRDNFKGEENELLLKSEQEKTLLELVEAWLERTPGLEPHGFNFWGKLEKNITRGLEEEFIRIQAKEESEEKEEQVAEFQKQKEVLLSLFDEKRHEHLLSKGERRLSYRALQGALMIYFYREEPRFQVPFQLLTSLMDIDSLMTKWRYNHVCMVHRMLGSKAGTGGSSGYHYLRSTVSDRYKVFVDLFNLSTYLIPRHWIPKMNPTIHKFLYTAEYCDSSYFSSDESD
Experiment: GL261-hTDO2 cell-based assay (kynurenine in supernatant)
Conditions: Table 2; GL261-hTDO2 cells
Each entry falls into one class according to its IC50; the ranges are A: < 1 µM; B: ≥ 1 µM and < 10 µM; C: ≥ 10 µM

[ask] Note: place this compound into its band. Item: `Nc1noc2ncc(I)cc12`
[reply] A

[ask] What would you report for `Nc1noc2ncc([N+](=O)[O-])cc12` ?
[reply] A

[ask] What would you report for `Nc1noc2ncc(Br)cc12` ?
[reply] A

[ask] What would you report for `Cc1nc2onc(NC(=O)Nc3ccccc3)c2c(C)c1Cl` ?
[reply] C

[ask] What would you report for `Nc1noc2nc3ccccc3cc12` ?
[reply] B

[ask] What would you report for `Nc1noc2ncncc12` ?
[reply] B

[ask] What would you report for `Cc1nc2onc(N)c2c(C)c1Cl` ?
[reply] C

[ask] What would you report for `Nc1noc2ncc(Cl)cc12` ?
[reply] A

[ask] What would you report for `Nc1noc2nc(-c3ccccc3)ccc12` ?
[reply] C

[ask] What would you report for Nc1nonc1/C(=N\O)Nc1ccc(F)c(Cl)c1 [INCB14934, reference compound] ?
[reply] B

[ask] What would you report for `Cc1nc2onc(N)c2c(C)c1Br` ?
[reply] C

[ask] What would you report for `Nc1noc2nc(C(F)(F)F)ccc12` ?
[reply] B

[ask] What would you report for `Cc1cc(Cl)nc2onc(N)c12` ?
[reply] B

[ask] What would you report for `COc1ccc2c(N)noc2n1` ?
[reply] C

---

Molecular target: murine IDO1 (Mus musculus)
Construct: expressed in transfected cells; host or cells: murine LLTC Lewis lung carcinoma cells
Sequence (P28776 whole entry): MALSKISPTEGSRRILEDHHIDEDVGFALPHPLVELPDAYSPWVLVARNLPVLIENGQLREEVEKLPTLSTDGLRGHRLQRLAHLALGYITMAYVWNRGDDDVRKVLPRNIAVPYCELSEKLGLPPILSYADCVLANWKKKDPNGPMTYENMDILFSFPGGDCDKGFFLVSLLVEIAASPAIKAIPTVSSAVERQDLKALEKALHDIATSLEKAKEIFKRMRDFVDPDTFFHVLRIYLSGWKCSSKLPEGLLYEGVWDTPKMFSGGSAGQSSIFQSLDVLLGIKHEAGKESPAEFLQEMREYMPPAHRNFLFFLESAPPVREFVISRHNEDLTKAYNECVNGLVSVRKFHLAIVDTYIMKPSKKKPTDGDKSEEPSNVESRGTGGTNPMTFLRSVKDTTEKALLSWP
Test: LLTC-mIDO1 cell-based assay (kynurenine in supernatant)
Details: Table 1; LLTC-mIDO1 cells, 24 h culture with compound; read-out: IC50 (µM) LLTC-mIDO1
Give measured IC50 for each item. Keep answers brief.
The reply should contain only the number, in µM.

[ask] Name the reported IC50 value associated with the molecule `C/C(=N\Nc1ccc(F)cc1F)c1cc2ccccc2o1`
[reply] 25

[ask] What would you report for `CC1=C/C(=N\Nc2ccccc2Cl)CC1` ?
[reply] 13.3

[ask] What would you report for `Fc1ccc(N/N=C/c2sc(N3CCOCC3)nc2-c2ccccc2)cc1` ?
[reply] 3.03

[ask] What would you report for `CCn1cc(-c2c(N)sc(NC(=O)c3ccccc3)c2C#N)c(C)n1` ?
[reply] 50.5

[ask] What would you report for `C/C(=N\Nc1ccc(C)c(Cl)c1)c1ccncc1` ?
[reply] 10.3

[ask] What would you report for `N#Cc1c(NC(=O)c2ccccc2)sc(N)c1-c1cccs1` ?
[reply] 22.5

---

Give measured IC50 for each item. Keep answers brief.
Target: human IDO1 (Homo sapiens, UniProt P14902)
Sequence (P14902 whole entry): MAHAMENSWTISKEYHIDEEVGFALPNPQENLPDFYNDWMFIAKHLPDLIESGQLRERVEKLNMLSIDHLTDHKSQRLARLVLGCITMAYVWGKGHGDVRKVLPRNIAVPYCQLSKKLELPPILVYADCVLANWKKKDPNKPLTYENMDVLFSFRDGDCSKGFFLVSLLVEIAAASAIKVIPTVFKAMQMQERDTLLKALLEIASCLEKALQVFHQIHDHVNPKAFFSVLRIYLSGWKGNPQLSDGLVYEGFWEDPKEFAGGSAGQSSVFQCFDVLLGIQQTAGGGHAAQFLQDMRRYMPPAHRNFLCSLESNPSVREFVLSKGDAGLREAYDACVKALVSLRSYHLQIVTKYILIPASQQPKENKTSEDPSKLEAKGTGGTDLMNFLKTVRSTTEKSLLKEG
Test: LLTC-hIDO1 cell-based assay (kynurenine in supernatant)
Set-up: host or cells: murine LLTC Lewis lung carcinoma cells
Conditions: Table 1; LLTC-hIDO1 cells, 24 h culture with compound; read-out: IC50 (µM) LLTC-hIDO1
Excerpt: Transfected LLTC cells constitutively expressing human IDO1 (LLTC-hIDO1) were established as previously described, by transfecting wild-type LLTC cells with pAd/CMV/V5-DEST with cDNA for human IDO1 (Invitrogen, Carlsbad, CA, USA). LLTC-mIDO1 cells that constitutive express murine IDO1 were established by transfection of wild-type LLTC with cDNA for murine IDO1 (courtesy of Dr Benoit van den Eynde). […]
The reply should contain only the number, in µM.

[ask] Name the reported IC50 value associated with the compound Fc1ccc(N/N=C2/CCCc3ccccc32)c(F)c1 [Compound W-0125931]
[reply] 6.04

[ask] What would you report for Fc1ccc(N/N=C/c2sc(N3CCOCC3)nc2-c2ccccc2)cc1 [Compound W-0079497] ?
[reply] 3.45

[ask] What would you report for CC1=C/C(=N\Nc2ccccc2Cl)CC1 [Compound W-0079433] ?
[reply] 5.33

[ask] What would you report for O=C(O)c1coc2c1C(=NNc1ccccc1)CCC2 [Compound W-0011387] ?
[reply] 3.19

[ask] What would you report for Cc1nc2onc(N)c2c(C)c1Cl [Compound W-0019482] ?
[reply] 0.08

These measurements were taken from paper PMC9501369.
